assay-procedure: Plasma concentration in rat plasma at 2.7 mg/kg, iv after 10 mins
Format: ADME, organism-based
Design: dose 2.7 mg/kg, route intravenous
condition-parameters: read-out: Drug uptake
observed-property: concentration at 10 min (µM)
Write the value in µM as a bare number.

Please supply the value of reported concentration at 10 min for the item COC(=O)c1ccc2[nH]c([C@H]3CC[C@@]4(CC3)OC(=O)c3ccccc34)nc2c1
3.1

###

assay-procedure: Plasma concentration in rat plasma at 10 mg/kg, po after 2 hrs
Assay type: ADME, organism-based
Set-up: dose 10 mg/kg, route oral
condition-parameters: read-out: Drug uptake
observed-property: concentration at 2 h
Answer format reminder: number followed by unit.

Please supply the value of reported concentration at 2 h for the item Cc1nc(-c2ccc3[nH]c([C@H]4CC[C@@]5(CC4)OC(=O)c4ccccc45)nc3c2)no1
400 nM

Please supply the value of reported concentration at 2 h for the item Cc1nnc(-c2ccc3[nH]c([C@H]4CC[C@@]5(CC4)OC(=O)c4ccccc45)nc3c2)o1
1400 nM

Please supply the value of reported concentration at 2 h for the item Cn1nnc(-c2ccc3[nH]c([C@H]4CC[C@@]5(CC4)OC(=O)c4ccccc45)nc3c2)n1
3200 nM

###

assay-procedure: Solubility in 0.2 M phosphate buffer at pH 6.8
Type: physicochemical
observed-property: solubility (µg/mL)
Write the value in µg/mL as a bare number.

Worked examples, 2 compounds total:
{"columns": ["structure-smiles", "unit-annotation", "endpoint-value"],
 "data": [
  ["Cc1nnc(-c2ccc3[nH]c([C@H]4CC[C@@]5(CC4)OC(=O)c4ccccc45)nc3c2)o1", "µg/mL", 0.94],
  ["Cn1nnc(-c2ccc3[nH]c([C@H]4CC[C@@]5(CC4)OC(=O)c4ccccc45)nc3c2)n1", "µg/mL", 5.9]
]}

Now look at this entry.
Please supply the value of reported solubility for the item COC(=O)c1ccc2[nH]c([C@H]3CC[C@@]4(CC3)OC(=O)c3ccccc34)nc2c1
0.6

###

assay-procedure: Ratio of drug level in brain to plasma at 2.7 mg/kg, iv after 10 mins
Assay type: ADME, organism-based
Set-up: dose 2.7 mg/kg, route intravenous
condition-parameters: rat, read-out: BPR
observed-property: Kp at 10 min

Please supply the value of reported Kp at 10 min for the item COC(=O)c1ccc2[nH]c([C@H]3CC[C@@]4(CC3)OC(=O)c3ccccc34)nc2c1
0.55

###

assay-procedure: Ratio of drug level in brain to plasma in rat at 10 mg/kg, po after 2 hrs
Assay type: ADME, organism-based
Parameters: dose 10 mg/kg, route oral
# maps each entry to its Kp at 2 h
Respond with the number and no other words.

{"columns": ["structure-smiles", "endpoint-value"],
 "data": [
  ["Cn1nnc(-c2ccc3[nH]c([C@H]4CC[C@@]5(CC4)OC(=O)c4ccccc45)nc3c2)n1", 0.12]
]}

Now look at this entry.
Please supply the value of reported Kp at 2 h for the item Cc1nnc(-c2ccc3[nH]c([C@H]4CC[C@@]5(CC4)OC(=O)c4ccccc45)nc3c2)o1
0.05

###

# maps each entry to its pIC50
tested-on: Neuropeptide Y receptor type 5 (Homo sapiens, UniProt Q15761)
Sequence (Q15761 whole entry): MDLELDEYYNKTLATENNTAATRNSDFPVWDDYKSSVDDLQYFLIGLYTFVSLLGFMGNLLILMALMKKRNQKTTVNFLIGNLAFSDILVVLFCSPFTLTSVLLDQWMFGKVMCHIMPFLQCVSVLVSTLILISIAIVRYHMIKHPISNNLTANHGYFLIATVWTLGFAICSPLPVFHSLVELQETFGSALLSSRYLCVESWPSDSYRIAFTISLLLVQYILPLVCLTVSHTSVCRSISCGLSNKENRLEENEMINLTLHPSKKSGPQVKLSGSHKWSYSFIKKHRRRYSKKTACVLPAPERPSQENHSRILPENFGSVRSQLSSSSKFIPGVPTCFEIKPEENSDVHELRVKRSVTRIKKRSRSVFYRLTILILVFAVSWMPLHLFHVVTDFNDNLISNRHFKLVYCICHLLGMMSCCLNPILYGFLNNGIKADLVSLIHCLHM
assay-procedure: Antagonist activity at human recombinant NPYY5 receptor expressed in mouse LMtk cells assessed as inhibition of NPY-induced calcium increase
Format: functional, cell-based
pIC50 is a log-scale quantity: -log10 of the concentration expressed in molar.

Worked examples, 2 compounds total:
{"columns": ["structure-smiles", "tested-on", "pIC50"],
 "data": [
  ["Cn1nnc(-c2ccc3[nH]c([C@H]4CC[C@@]5(CC4)OC(=O)c4ccccc45)nc3c2)n1", "Neuropeptide Y receptor type 5 (Homo sapiens, UniProt Q15761)", 8.14],
  ["Cc1nc(-c2ccc3[nH]c([C@H]4CC[C@@]5(CC4)OC(=O)c4ccccc45)nc3c2)no1", "Neuropeptide Y receptor type 5 (Homo sapiens, UniProt Q15761)", 8.15]
]}

Please supply the value of reported pIC50 for the item Cc1nnc(-c2ccc3[nH]c([C@H]4CC[C@@]5(CC4)OC(=O)c4ccccc45)nc3c2)o1
8.26
